I'd be grateful if you could share measured ED50 for these entries.
target: Opioid receptor (Rattus norvegicus) (UniProt P33533+P34975+P33535); settings: Brain
Sequence (P33533 whole entry, looked up): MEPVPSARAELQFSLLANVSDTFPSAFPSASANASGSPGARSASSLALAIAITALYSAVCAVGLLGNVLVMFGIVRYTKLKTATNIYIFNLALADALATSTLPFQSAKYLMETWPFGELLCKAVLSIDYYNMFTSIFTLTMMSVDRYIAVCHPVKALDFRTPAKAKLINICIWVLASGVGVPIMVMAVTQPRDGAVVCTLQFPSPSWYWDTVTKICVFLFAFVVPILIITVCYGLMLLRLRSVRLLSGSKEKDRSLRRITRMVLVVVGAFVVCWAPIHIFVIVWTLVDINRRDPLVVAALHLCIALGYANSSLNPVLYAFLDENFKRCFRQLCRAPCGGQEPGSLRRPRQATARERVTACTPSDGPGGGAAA
Sequence (P33535 whole entry, looked up): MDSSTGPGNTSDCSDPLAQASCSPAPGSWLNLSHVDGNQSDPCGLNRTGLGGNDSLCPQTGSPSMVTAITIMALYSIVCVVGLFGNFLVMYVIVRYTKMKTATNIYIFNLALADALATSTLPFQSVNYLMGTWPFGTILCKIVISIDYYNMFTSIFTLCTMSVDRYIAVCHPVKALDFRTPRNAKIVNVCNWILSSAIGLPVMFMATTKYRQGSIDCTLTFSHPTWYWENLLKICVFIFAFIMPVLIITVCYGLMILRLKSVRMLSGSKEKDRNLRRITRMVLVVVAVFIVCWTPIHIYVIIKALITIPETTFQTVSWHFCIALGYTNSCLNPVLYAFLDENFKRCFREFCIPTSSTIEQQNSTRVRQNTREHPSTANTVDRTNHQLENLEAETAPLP
Sequence (P34975 whole entry, looked up): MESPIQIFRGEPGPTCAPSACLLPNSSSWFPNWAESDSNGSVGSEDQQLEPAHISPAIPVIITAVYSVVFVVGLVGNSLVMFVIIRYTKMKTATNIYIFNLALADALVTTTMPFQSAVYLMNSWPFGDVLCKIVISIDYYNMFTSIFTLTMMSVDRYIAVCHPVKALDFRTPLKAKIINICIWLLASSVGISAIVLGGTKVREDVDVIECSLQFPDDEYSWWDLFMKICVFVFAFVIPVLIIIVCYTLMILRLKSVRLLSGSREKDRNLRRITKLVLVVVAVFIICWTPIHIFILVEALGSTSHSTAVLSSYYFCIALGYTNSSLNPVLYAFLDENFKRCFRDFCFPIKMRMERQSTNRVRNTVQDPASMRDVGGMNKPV
Description: Displacement of [3H]dihydromorphine from opioid receptor in rat brain homogenate
Numbers only, in µM.

>>> df
                              compound  experimental_value
0   Cc1[nH]c(C)c(C(=O)OC2CCN(C)CC2)c1C                   1
1  CN1CCC(OC(=O)c2ccc3c(c2)OCO3)CC1.Cl                  30

For reference, reported ED50 for CCOC(=O)C1(c2ccccc2)CCN(C)CC1 stands at 0.7
